Recorded values, source ChEMBL document CHEMBL5150008.

- target: Keap1/Nrf2 (Homo sapiens)
- Sequence (Q16236 whole entry, the tested form may be a part): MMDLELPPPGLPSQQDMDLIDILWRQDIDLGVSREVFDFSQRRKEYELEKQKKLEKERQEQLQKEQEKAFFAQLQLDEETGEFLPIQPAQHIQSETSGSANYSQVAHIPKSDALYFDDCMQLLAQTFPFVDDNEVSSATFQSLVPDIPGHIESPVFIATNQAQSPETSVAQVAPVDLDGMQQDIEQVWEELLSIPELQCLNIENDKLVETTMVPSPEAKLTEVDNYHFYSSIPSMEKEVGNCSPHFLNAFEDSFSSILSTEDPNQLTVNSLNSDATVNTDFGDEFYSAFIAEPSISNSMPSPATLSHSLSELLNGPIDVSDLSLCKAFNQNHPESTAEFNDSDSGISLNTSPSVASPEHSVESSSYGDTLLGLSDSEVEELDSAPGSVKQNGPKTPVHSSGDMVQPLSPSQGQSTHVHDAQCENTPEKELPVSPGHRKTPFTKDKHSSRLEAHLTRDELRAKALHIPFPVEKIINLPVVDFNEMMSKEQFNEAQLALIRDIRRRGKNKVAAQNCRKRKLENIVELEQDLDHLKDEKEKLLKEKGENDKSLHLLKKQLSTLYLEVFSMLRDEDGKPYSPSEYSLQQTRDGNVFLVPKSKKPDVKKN
- Sequence (Q14145 whole entry, the tested form may be a part): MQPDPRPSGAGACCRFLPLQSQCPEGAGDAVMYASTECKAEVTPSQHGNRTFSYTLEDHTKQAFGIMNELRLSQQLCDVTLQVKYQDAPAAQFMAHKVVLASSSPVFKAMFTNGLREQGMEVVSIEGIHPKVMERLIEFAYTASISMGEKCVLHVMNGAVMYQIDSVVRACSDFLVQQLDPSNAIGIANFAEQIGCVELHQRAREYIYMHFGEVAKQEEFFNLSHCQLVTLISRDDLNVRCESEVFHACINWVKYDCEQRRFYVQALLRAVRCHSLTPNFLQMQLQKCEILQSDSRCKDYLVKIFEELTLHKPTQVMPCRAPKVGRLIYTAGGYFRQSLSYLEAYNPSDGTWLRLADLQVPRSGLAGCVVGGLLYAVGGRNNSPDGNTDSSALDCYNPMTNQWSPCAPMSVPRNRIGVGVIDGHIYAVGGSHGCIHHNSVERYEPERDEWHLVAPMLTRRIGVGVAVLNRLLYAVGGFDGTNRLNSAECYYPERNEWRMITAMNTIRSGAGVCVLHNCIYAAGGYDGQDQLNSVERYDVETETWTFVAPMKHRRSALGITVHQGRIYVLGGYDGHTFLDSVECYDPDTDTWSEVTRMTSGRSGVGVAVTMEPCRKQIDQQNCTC
- assay_method_text: Inhibition of 5'-TAMRA tagged NRF2 (unknown origin)/human recombinant N-terminal Avi tagged KEAP-1 (321 to 609 residues) expressed in Baculovirus system infected in Sf9 cells protein-protein interaction by fluorescence polarisation assay
- experimental_conditions: read-out: IC50
pIC50: −log10 of the molar value.

{"line_notation": "O=C(O)c1cnn(-c2cccc(NS(=O)(=O)c3ccccc3)c2)c1C(F)(F)F", "target": "Keap1/Nrf2 (Homo sapiens)", "pIC50": 5.34}
{"line_notation": "CN(C)C(=O)c1cccc(-c2cccc(-n3ncc(C(=O)O)c3C(F)(F)F)c2)c1", "target": "Keap1/Nrf2 (Homo sapiens)", "pIC50": 6.32}
{"line_notation": "CN(C)C(=O)c1cccc(-c2cccc(-n3ncc(C(=O)O)c3-c3cccnc3)c2)c1", "target": "Keap1/Nrf2 (Homo sapiens)", "pIC50": 5.70}
{"line_notation": "CN(C)C(=O)c1cccc(-c2cccc(-n3ncc(C(=O)O)c3C3CC3)c2)c1", "target": "Keap1/Nrf2 (Homo sapiens)", "pIC50": 6.43}
{"line_notation": "CN(C)C(=O)c1ccnc(-c2cccc(-n3ncc(C(=O)O)c3C(F)(F)F)c2)c1", "target": "Keap1/Nrf2 (Homo sapiens)", "pIC50": 5.12}

###

- assay_method_text: Lipophilicity, logD of compound at pH 2 to 10.5 by reversed-phase HPLC
- Type: physicochemical
In plain terms, low chromatographic logD, meaning strictly below 3, gives fulfilled, and everything else gives not fulfilled.

{"compound": "CN(C)C(=O)[C@H]1CCC[C@@H](c2cccc(-n3ncc(C(=O)O)c3C3CC3)c2)C1 (racemic)", "class_label": "fulfilled"}
{"compound": "CCC[C@@H]1CCCCN1C(=O)c1cccc(-c2cccc(-n3ncc(C(=O)O)c3C3CC3)c2)c1F", "class_label": "not fulfilled"}
{"compound": "O=C(O)c1cnn(-c2cccc(-c3cccc(C(=O)N(CC4CC4)CC4CC4)c3F)c2)c1C1CC1", "class_label": "not fulfilled"}
{"compound": "CN(CC1CC1)C(=O)c1cccc(-c2cccc(-n3ncc(C(=O)O)c3C3CC3)c2)c1F", "class_label": "fulfilled"}
{"compound": "CN(C)C(=O)c1cccc(-c2cccc(-n3ncc(C(=O)O)c3C3CC3)c2)c1F", "class_label": "fulfilled"}
{"compound": "CCCC1COCCN1C(=O)c1cccc(-c2cccc(-n3ncc(C(=O)O)c3C3CC3)c2)c1F (stereo unspecified)", "class_label": "fulfilled"}
{"compound": "CCCC1CCCCN1C(=O)C1CCCC(c2cccc(-n3ncc(C(=O)O)c3C3CC3)c2)C1 (mixture of isomers)", "class_label": "not fulfilled"}
{"compound": "CCC[C@H]1CCCCN1C(=O)c1cccc(-c2cccc(-n3ncc(C(=O)O)c3C3CC3)c2)c1F", "class_label": "not fulfilled"}
{"compound": "CCCC1CCCCN1C(=O)c1cccc(-c2cccc(-n3ncc(C(=O)O)c3C3CC3c3cccnc3)c2)c1 (mixture of isomers)", "class_label": "not fulfilled"}
{"compound": "O=C(O)c1cnn(-c2cccc([C@@H]3CCC[C@H](C(=O)N4CCCCC4)C3)c2)c1C1CC1 (racemic)", "class_label": "fulfilled"}
{"compound": "CCCC[C@@H]1CCCN1C(=O)[C@H]1CCC[C@@H](c2cccc(-n3ncc(C(=O)O)c3C3CC3)c2)C1", "class_label": "not fulfilled"}
{"compound": "O=C(O)c1cnn(-c2cccc(-c3cccc(C(=O)N4CCCCC4)c3F)c2)c1C1CC1", "class_label": "fulfilled"}
{"compound": "CN(C)C(=O)c1cccc(-c2cccc(-n3ncc(C(=O)O)c3C3CC3c3cn(C)nn3)c2)c1 (racemic)", "class_label": "fulfilled"}
{"compound": "CCCCC1CCCN1C(=O)C1CCCC(c2cccc(-n3ncc(C(=O)O)c3C3CC3)c2)C1 (mixture of isomers)", "class_label": "not fulfilled"}
